Hello, the source for this data is the CombiSolv-Exp solvation set (Vermeire and Green 2021), in case you need it.

Quick reference: solvation free energy, 298 K of the listed items.
test: solvent given as SMILES; conditions: in CCOP(=O)(OCC)OCC
observed property: solvation free energy, 298 K (kcal/mol)

molecule smiles: CCO
observed property: solvation free energy, 298 K
measured value: -4.76
--
molecule smiles: CCOC(C)=O
observed property: solvation free energy, 298 K
measured value: -4.13
--
molecule smiles: CC(C)=O
observed property: solvation free energy, 298 K
measured value: -3.64
--
molecule smiles: CC(=O)CC(C)C
observed property: solvation free energy, 298 K
measured value: -4.94

###

assay: solvent given as SMILES; details: in CC(C)OC(C)C

compound: CCc1ccc2c(c1)C(=O)c1ccccc1C2=O
solvation free energy, 298 K (kcal/mol): -12.4
//
compound: CCC(C)Cl (centres undefined)
solvation free energy, 298 K (kcal/mol): -3.95
//
compound: c1ccc2c(c1)Sc1ccccc1S2
solvation free energy, 298 K (kcal/mol): -11.7
//
compound: CCCCCCCC
solvation free energy, 298 K (kcal/mol): -5.29
//
compound: O=S(=O)(c1ccccc1)c1ccccc1
solvation free energy, 298 K (kcal/mol): -13.1
//
compound: CCCCCCCCC
solvation free energy, 298 K (kcal/mol): -5.88
//
compound: CC(C)C(C)C(C)C
solvation free energy, 298 K (kcal/mol): -4.9
//
compound: CCCCC
solvation free energy, 298 K (kcal/mol): -3.35
//
compound: COc1ccc(C(=O)O)cc1
solvation free energy, 298 K (kcal/mol): -10.8
//
compound: c1cc2ccc3cccc4ccc(c1)c2c34
solvation free energy, 298 K (kcal/mol): -12
//
compound: CCO
solvation free energy, 298 K (kcal/mol): -3.77
//
compound: O=C(O)c1cc([N+](=O)[O-])ccc1Cl
solvation free energy, 298 K (kcal/mol): -12
//
compound: CCCCCC
solvation free energy, 298 K (kcal/mol): -3.98
//
compound: CCCCCCC
solvation free energy, 298 K (kcal/mol): -4.63
//
compound: C[N+](=O)[O-]
solvation free energy, 298 K (kcal/mol): -3.87
//
compound: CC(C)CCC(C)C
solvation free energy, 298 K (kcal/mol): -4.85
//
compound: O=[N+]([O-])c1cccc2ccccc12
solvation free energy, 298 K (kcal/mol): -10.4
//
compound: c1ccc2cc3ccccc3cc2c1
solvation free energy, 298 K (kcal/mol): -10.5
//
compound: CCC(C)O (centres undefined)
solvation free energy, 298 K (kcal/mol): -4.56
